% labelled HEL cells by entry:
# testTarget: T1, CD117 (c-Kit, stem cell factor receptor) on HEL or TF1 human erythroleukemia cells (human, UniProt P10721 26-976)
# T1 construct: whole, on cells
# T1 sequence (P10721 26-976): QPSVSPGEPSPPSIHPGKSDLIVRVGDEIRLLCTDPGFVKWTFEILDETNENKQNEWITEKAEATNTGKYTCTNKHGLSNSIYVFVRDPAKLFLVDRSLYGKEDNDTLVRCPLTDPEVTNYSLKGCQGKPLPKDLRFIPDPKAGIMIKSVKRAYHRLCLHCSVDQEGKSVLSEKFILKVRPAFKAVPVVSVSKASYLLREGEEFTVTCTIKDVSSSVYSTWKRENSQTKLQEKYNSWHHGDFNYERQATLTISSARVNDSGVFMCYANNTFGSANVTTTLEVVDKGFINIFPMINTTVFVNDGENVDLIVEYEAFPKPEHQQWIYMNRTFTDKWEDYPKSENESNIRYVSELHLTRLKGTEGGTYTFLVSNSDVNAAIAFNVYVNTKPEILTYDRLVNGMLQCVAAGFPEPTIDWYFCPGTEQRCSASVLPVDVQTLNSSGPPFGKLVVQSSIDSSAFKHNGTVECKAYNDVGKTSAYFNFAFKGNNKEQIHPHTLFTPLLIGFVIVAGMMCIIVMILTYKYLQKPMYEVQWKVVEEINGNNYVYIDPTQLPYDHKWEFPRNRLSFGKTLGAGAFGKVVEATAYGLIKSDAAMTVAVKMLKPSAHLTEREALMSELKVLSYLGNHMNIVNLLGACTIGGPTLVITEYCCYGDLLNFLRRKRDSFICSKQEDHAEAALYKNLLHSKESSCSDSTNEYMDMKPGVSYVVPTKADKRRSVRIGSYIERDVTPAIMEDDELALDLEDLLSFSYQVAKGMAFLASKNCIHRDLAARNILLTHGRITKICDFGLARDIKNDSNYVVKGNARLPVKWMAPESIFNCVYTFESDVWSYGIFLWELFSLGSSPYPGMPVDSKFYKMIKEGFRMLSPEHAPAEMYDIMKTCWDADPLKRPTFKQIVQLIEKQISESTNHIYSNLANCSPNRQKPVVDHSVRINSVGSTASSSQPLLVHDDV
# test: flow cytometry on HEL cells; 0.1 µl/2.10^5 cells
# Protocol: By flow cytometry, the humanized mAb staining was analyzed on HEL CD117 positive cell line. […] No staining was observed on the cell line CEM (CD117 negative, (data not shown).
Give the quantity in %, number only.

>>> quantitativereadout("humanized antibody 36-5 Hz121 (antibody, human IgG1, V domains shown, The variable regions were cloned into vector p3U containing the human IgG1 constant region; also called H-36.5Hz30 + L-36.5Hz31) VH: QVQLVQSGAEVKKPGASVKVSCKASGYTFTSYWMNWVRQAPGQGLEWMGRIDPSDSEIHYNQKFKGRVTMTVDTSTSTAYMELSSLRSEDTAVYYCARDYGSDYYAMDYWGQGTLVTVSS VL: QIVLTQSPAFQSVTPGEKVTITCSASQSVSYMHWYQQKSGTSPKLLIYSTSNLTSGVPSRFSGSGSGTDYTLTISSLEAEDAATYYCHQWSSYPFGGGTKVEIK")
59
>>> quantitativereadout("humanized antibody 36-5 Hz128 (antibody, human IgG1, V domains shown, The variable regions were cloned into vector p3U containing the human IgG1 constant region; also called H-36.5Hz31 + L-36.5Hz31) VH: QVQLVQSGAEVKKPGASVKVSCKASGYTFTSYWMNWVRQAPGQGLEWIGRIDPSDSEIHYNQKFKGRVTMTVDTSTSTAYMELSSLRSEDTAVYYCARDYGSDYYAMDYWGQGTLVTVSS VL: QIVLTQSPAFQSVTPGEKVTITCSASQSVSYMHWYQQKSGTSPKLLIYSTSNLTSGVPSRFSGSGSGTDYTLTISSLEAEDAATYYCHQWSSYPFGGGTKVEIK")
61

Note to self: % labelled HEL cells recorded for humanized antibody 36-5 Hz114 (antibody, human IgG1, V domains shown, The variable regions were cloned into expression vector p3U containing the human IgG1 constant region; also called H-36.5Hz27 + L-36.5Hz31) VH: QVQLVQSGAEVKKPGASVKVSCKASGYTFTSYWMNWVRQAPGQGLEWMGRIDPSDSEIHYNQKFKDKATLTVDKSTSTAYMELSSLRSEDTAVYYCARDYGSDYYAMDYWGQGTLVTVSS VL: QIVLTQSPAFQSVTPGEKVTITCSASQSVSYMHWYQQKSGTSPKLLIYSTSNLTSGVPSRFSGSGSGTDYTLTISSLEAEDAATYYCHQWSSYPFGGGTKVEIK was 64

Where do the numbers come from? From patent US20220411501A1.
